- assayed system: Human TRPV3 (Homo sapiens, UniProt Q8NET8)
- Construct: expressed in transfected cells; host or cells: CHO cells (selected with G-418)
- Sequence (Q8NET8 whole entry): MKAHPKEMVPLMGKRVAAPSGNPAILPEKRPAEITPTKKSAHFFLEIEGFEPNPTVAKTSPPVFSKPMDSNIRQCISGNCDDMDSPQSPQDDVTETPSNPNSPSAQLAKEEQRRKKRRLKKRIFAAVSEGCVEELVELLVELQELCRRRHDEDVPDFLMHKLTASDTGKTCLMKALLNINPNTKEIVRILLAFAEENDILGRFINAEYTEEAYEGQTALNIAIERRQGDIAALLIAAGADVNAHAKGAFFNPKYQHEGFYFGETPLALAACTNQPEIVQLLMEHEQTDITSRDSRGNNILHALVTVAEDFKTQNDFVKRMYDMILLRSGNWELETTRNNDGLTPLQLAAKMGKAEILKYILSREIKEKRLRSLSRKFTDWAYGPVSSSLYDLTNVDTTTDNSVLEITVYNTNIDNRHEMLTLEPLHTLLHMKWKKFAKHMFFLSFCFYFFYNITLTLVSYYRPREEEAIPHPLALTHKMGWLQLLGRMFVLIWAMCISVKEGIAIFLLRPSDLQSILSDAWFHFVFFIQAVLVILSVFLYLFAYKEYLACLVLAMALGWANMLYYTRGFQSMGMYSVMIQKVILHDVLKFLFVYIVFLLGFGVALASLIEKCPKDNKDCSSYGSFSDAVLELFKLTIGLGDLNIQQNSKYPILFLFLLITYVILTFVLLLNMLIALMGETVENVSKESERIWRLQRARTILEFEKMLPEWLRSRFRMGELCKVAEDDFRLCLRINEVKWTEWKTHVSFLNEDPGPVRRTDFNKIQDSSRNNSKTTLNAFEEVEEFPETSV
- procedure details: 45Calcium uptake assay: inhibition of 2-APB induced cellular uptake of radioactive calcium
- Type: cell-based
- recorded conditions: 10 μM test compound; human TRPV3 expressing CHO cells; 2-APB 500 μM; read-out: Percentage Inhibition (10 μM)
Label 1 (yes) when inhibition at 10 µM >= 80%; otherwise 0 (no).

# count of solved cases: 7
>>> group("COc1cccc(/C=C/c2nc3ccc(OC(F)F)cc3n2-c2ccc(C#N)cn2)c1OC1CCCC1 [Example 58]")
"1 (yes)"
>>> group("CCCCCOc1c(/C=C/c2nc3cccnc3n2-c2ccc(C#N)cn2)cccc1OC [Example 87]")
"1 (yes)"
>>> group("FC(F)Oc1cccc(/C=C/c2nc3cccnc3n2-c2ccc(OC(F)(F)F)cc2)c1OCC1CCC1 [Example 100]")
"1 (yes)"
>>> group("COc1cccc(/C=C/c2nc3ccccc3n2-c2ccc(C#N)cn2)c1OCc1ccccc1C(F)(F)F [Example 16]")
"1 (yes)"
>>> group("COc1cccc(/C=C/c2nc3ccccc3n2-c2ncccc2C(F)(F)F)c1OC1CCCC1 [Example 24]")
"1 (yes)"
>>> group("COc1cccc(/C=C/c2nc3cc(F)c(F)cc3n2-c2ccc(C(=O)O)nn2)c1OC1CCCC1 [Example 74]")
"0 (no)"
>>> group("CCCCCOc1c(/C=C/c2nc3ccc[n+]([O-])c3n2-c2ccc(C#N)cn2)cccc1OC [Example 88]")
"0 (no)"

Let's switch to this compound now.
Could you verify whether the entry COc1cccc(/C=C/c2nc3ccccc3n2-c2cccs2)c1OCC1CC1 [Example 45] shows inhibition at 10 µM of no less than 80%?
1 (yes)

* * *

Listing: inhibition at 10 µM of selected compounds
- assayed system: Human TRPV3 (Homo sapiens)
- Construct: expressed in transfected cells; host or cells: CHO cells (selected with G-418)
- procedure details: 45Calcium uptake assay: inhibition of 2-APB induced cellular uptake of radioactive calcium
- Type: cell-based
- recorded conditions: 10 μM test compound; human TRPV3 expressing CHO cells; 2-APB 500 μM; read-out: Percentage Inhibition (10 μM)
Give just the numeric value; % need not be written.

Worked cases, inhibition at 10 µM given:
>>> observed_measurement("COc1cccc(/C=C/c2nc3ccccc3n2-c2ncccc2C#N)c1OC1CCCC1")
92.8
>>> observed_measurement("CCCCCOc1c(/C=C/c2nc3c(F)c(F)c(F)cc3n2-c2ccc(C#N)cn2)cccc1OC")
95.7
>>> observed_measurement("COc1cccc(/C=C/c2nc3cc(Cl)ccc3n2-c2ccc(C#N)cn2)c1OC1CCCC1")
97.6

Missing value: inhibition at 10 µM, Human TRPV3 (Homo sapiens), entry COc1cccc(/C=C/c2nc3ccccc3n2-c2ccc(C#N)cn2)c1OCC(C)C . Fill in?
97.4

Missing value: inhibition at 10 µM, Human TRPV3 (Homo sapiens), entry FC(F)Oc1cccc(/C=C/c2nc3cccnc3n2-c2ccc(C(F)(F)F)cc2)c1OCC1CCC1 . Fill in?
95.8

Missing value: inhibition at 10 µM, Human TRPV3 (Homo sapiens), entry COc1cccc(/C=C/c2nc3cccnc3n2-c2ccc(C#N)cn2)c1OCC1CCC1 . Fill in?
98.2
